Test system: isolate B739
Assay: Disc diffusion antimicrobial susceptibility testing; note: key: R—resistant; S—susceptible
Type: cell-based, Staphylococcus pseudolugdunensis
Details: isolate 8739
MEASURED_QUANTITY: Antimicrobial susceptibility

Consider the worked cases shown below.
{"COMPOUND": "CN(C)c1ccc(O)c2c1C[C@H]1C[C@H]3[C@H](N(C)C)C(O)=C(C(N)=O)C(=O)[C@@]3(O)C(O)=C1C2=O [Minocycline]", "STUDY_TARGET": "isolate B739", "Antimicrobial susceptibility": "S"}
{"COMPOUND": "Cc1nnc(SCC2=C(C(=O)O)N3C(=O)[C@@H](NC(=O)Cn4cnnn4)[C@H]3SC2)s1 [Cefazolin]", "STUDY_TARGET": "isolate B739", "Antimicrobial susceptibility": "R"}
{"COMPOUND": "COc1cccc(OC)c1C(=O)N[C@@H]1C(=O)N2[C@@H]1SC(C)(C)[C@@H]2C(=O)O [Methicillin]", "STUDY_TARGET": "isolate B739", "Antimicrobial susceptibility": "R"}
{"COMPOUND": "CC[C@H]1OC(=O)[C@H](C)[C@@H](O[C@H]2C[C@@](C)(OC)[C@@H](O)[C@H](C)O2)[C@H](C)[C@@H](O[C@@H]2O[C@H](C)C[C@H](N(C)C)[C@H]2O)[C@](C)(O)C[C@@H](C)C(=O)[C@H](C)[C@@H](O)[C@]1(C)O [Erythromycin]", "STUDY_TARGET": "isolate B739", "Antimicrobial susceptibility": "R"}
{"COMPOUND": "CCC[C@@H]1C[C@@H](C(=O)N[C@@H]([C@H]2O[C@H](SC)[C@H](O)[C@@H](O)[C@H]2O)[C@H](C)Cl)N(C)C1 [Clindamycin]", "STUDY_TARGET": "isolate B739", "Antimicrobial susceptibility": "R"}
{"COMPOUND": "CO[C@H]1/C=C/O[C@@]2(C)Oc3c(C)c(O)c4c(O)c(c(/C=N/N5CCN(C)CC5)c(O)c4c3C2=O)NC(=O)/C(C)=C\\C=C\\[C@H](C)[C@H](O)[C@@H](C)[C@@H](O)[C@@H](C)[C@H](OC(C)=O)[C@@H]1C [Rifampin]", "STUDY_TARGET": "isolate B739", "Antimicrobial susceptibility": "S"}

IN: State, in one line, measured Antimicrobial susceptibility of CN[C@H](CC(C)C)C(=O)N[C@H]1C(=O)N[C@@H](CC(N)=O)C(=O)N[C@H]2C(=O)N[C@H]3C(=O)N[C@H](C(=O)N[C@H](C(=O)O)c4cc(O)cc(O)c4-c4cc3ccc4O)[C@H](O)c3ccc(c(Cl)c3)Oc3cc2cc(c3O[C@@H]2O[C@H](CO)[C@@H](O)[C@H](O)[C@H]2O[C@H]2C[C@](C)(N)[C@H](O)[C@H](C)O2)Oc2ccc(cc2Cl)[C@H]1O [Vancomycin]
OUT: S

IN: Identify measured Antimicrobial susceptibility corresponding to C[C@H]1COc2c(N3CCN(C)CC3)c(F)cc3c(=O)c(C(=O)O)cn1c23 [Levofloxacin]
OUT: S

====

Tested on: isolate B006
Experiment: Disc diffusion antimicrobial susceptibility testing; note: key: R—resistant; S—susceptible
Assay type: cell-based, Staphylococcus pseudolugdunensis
Text: […]
MEASURED_QUANTITY: Antimicrobial susceptibility

Consider the reported Antimicrobial susceptibility for these compounds:
{"SMILES_RECORD": "COc1cccc(OC)c1C(=O)N[C@@H]1C(=O)N2[C@@H]1SC(C)(C)[C@@H]2C(=O)O", "STUDY_TARGET": "isolate B006", "MEASURED_QUANTITY": "Antimicrobial susceptibility", "VALUE_MEASURED": "R"}
{"SMILES_RECORD": "CN(C)c1ccc(O)c2c1C[C@H]1C[C@H]3[C@H](N(C)C)C(O)=C(C(N)=O)C(=O)[C@@]3(O)C(O)=C1C2=O", "STUDY_TARGET": "isolate B006", "MEASURED_QUANTITY": "Antimicrobial susceptibility", "VALUE_MEASURED": "S"}
{"SMILES_RECORD": "CN[C@H](CC(C)C)C(=O)N[C@H]1C(=O)N[C@@H](CC(N)=O)C(=O)N[C@H]2C(=O)N[C@H]3C(=O)N[C@H](C(=O)N[C@H](C(=O)O)c4cc(O)cc(O)c4-c4cc3ccc4O)[C@H](O)c3ccc(c(Cl)c3)Oc3cc2cc(c3O[C@@H]2O[C@H](CO)[C@@H](O)[C@H](O)[C@H]2O[C@H]2C[C@](C)(N)[C@H](O)[C@H](C)O2)Oc2ccc(cc2Cl)[C@H]1O", "STUDY_TARGET": "isolate B006", "MEASURED_QUANTITY": "Antimicrobial susceptibility", "VALUE_MEASURED": "S"}
{"SMILES_RECORD": "CCC[C@@H]1C[C@@H](C(=O)N[C@@H]([C@H]2O[C@H](SC)[C@H](O)[C@@H](O)[C@H]2O)[C@H](C)Cl)N(C)C1", "STUDY_TARGET": "isolate B006", "MEASURED_QUANTITY": "Antimicrobial susceptibility", "VALUE_MEASURED": "S"}

IN: Report Antimicrobial susceptibility under test system isolate B006 for C[C@H]1COc2c(N3CCN(C)CC3)c(F)cc3c(=O)c(C(=O)O)cn1c23 .
OUT: S

Data origin, for the record: patent US20100240093A1
